Test system: HOP-92 NSCLC
Test: NCI tumour cell line growth inhibition, 48 h; in the data active = GI50 below about 0.43 µM; inactive = the rest
Labels: active, inactive

molecule	class_assignment
COc1cc2c3c(n(CCCN)c(=O)c2cc1OC)-c1ccc(N(C)C)cc1C3=O	inactive
C#CCNCCCN1C(=O)c2ccc3c4c(ccc(c24)C1=O)C(=O)N(CCCNCC#C)C3=O	inactive
C#CC#CC#CC#CC#CC#CC#CC#CC[C@@H]1OC[C@H](COC(=O)O[C@@H](C(=O)O[C@H]2C[C@@]3(O)[C@@H](OC(=O)c4ccccc4)[C@@H]4[C@]5(OC(C)=O)CO[C@@H]5C[C@H](O)[C@@]4(C)C(=O)[C@H](OC(C)=O)C(=C2C)C3(C)C)[C@@H](NC(=O)c2ccccc2)c2ccccc2)O1	inactive
CCC(C)CN=C(N)c1ccc(N2CCN(c3ccc(C(N)=NCC(C)CC)cc3)CC2)cc1 (stereo not drawn)	active
Cn1cc(-c2csc(-c3c[nH]c4ccccc34)n2)c2cccnc21	inactive
CCCCCCC(O)(c1ccc(F)cc1)C(CN1CCOCC1)c1ccccc1 (stereo not drawn)	inactive
O=S(=O)(Nc1ccc2ccccc2c1)N1CCCCC1	inactive
NS(=O)(=O)c1ccc(N=Nc2c(O)[nH]c3ccc(Cl)cc23)cc1	inactive

###

Here the recorded GI50 is given for each entry.
System: MDA-MB-231 breast
Assay: NCI tumour cell line growth inhibition, 48 h

compound	GI50
O=Cc1cn(Cc2ccccc2)c2ccccc12	38.7 µM
O=S(=O)(Nc1ccc2ccccc2c1)N1CCCCC1	10.1 µM
COc1ccc2nc3c(n2c1)C(=O)C(=O)c1ccccc1-3	2.53 µM
CCCCCN1C(=O)/C(=c2\sc3n(c2=O)C2C(NN=3)N(CC)C(=O)N2CC)c2ccccc21 (stereo not drawn)	1.87 µM
CCCCCCCCn1ccc2cc(NC(=O)Cn3cc(CN4CCN(CC)CC4)nn3)ccc21	1.75 µM
O=S(=O)(Nc1cc(F)cc(F)c1)c1ccc(-c2cnc(C3CC3)o2)cc1	6.46 µM
CCCCCCCC/C(=C\C1=C(C)C(=O)C(OC)=C(OC)C1=O)C(=O)O	21.4 µM
C#CC#CC#CC#CC#CC#CC#CC#CC[C@@H]1OC[C@H](COC(=O)O[C@@H](C(=O)O[C@H]2C[C@@]3(O)[C@@H](OC(=O)c4ccccc4)[C@@H]4[C@]5(OC(C)=O)CO[C@@H]5C[C@H](O)[C@@]4(C)C(=O)[C@H](OC(C)=O)C(=C2C)C3(C)C)[C@@H](NC(=O)c2ccccc2)c2ccccc2)O1	4.17 µM

###

Test system: HCT-15 colon
Test: NCI tumour cell line growth inhibition, 48 h
A collection of compounds and their measured TGI

compound	TGI
COc1ccc(N(CN2C(=O)CCC2OC)C(C)=O)cc1 (stereo not drawn)	> 100 µM
Cc1cc(O)c(C=NC(=S)c2ccncc2)c(=O)o1	> 100 µM
CCOC(=O)c1ccc(O)cc1	> 100 µM
COC(=O)[C@]1(C)CCC[C@]2(C)C3CC4OOC3(C=C4C(C)(C)O)CCC21 (stereo partly drawn)	> 100 µM
COC(=O)N[C@H]1C=C[C@@H]2/C=C(C)/C=C/[C@@H](C)[C@H]([C@H](C)[C@H](O)[C@@H](C)NC(C)=O)OC(=O)/C=C/C=C(C)\C=C\[C@]2(C)C1	> 45.3 µM
CC(CO)CCC(O)C(C)(O)C1CCC2(O)C3=CC(=O)C4CC(O)C(O)CC4(C)C3CCC12C (stereo not drawn)	> 100 µM
C#CC#CC#CC#CC#CC#CC#CC#CC[C@@H]1OC[C@H](COC(=O)O[C@@H](C(=O)O[C@H]2C[C@@]3(O)[C@@H](OC(=O)c4ccccc4)[C@@H]4[C@]5(OC(C)=O)CO[C@@H]5C[C@H](O)[C@@]4(C)C(=O)[C@H](OC(C)=O)C(=C2C)C3(C)C)[C@@H](NC(=O)c2ccccc2)c2ccccc2)O1	> 25 µM
CCN(CC)c1ccc2cc(-c3nc4ccccc4n3C)c(=O)oc2c1	> 100 µM
